Where do the numbers come from? From BigSolDB 2.1.

conditions: in acetone, 323.35 K

# line.notation, solubility (mole fraction)
records = [
    ("C[C@@H]1OC(=O)[C@H](C)OC1=O", 0.455),
]

---

conditions: in methanol, 282.15 K

# line.notation, solubility (mole fraction)
measured = [
    ("C[C@@H]1OC(=O)[C@H](C)OC1=O", 0.0221),
]

---

conditions: in ethanol, 295.35 K
recorded.endpoint: solubility (mole fraction)

# line.notation, recorded.endpoint, observed.value
data = [
    ("C[C@@H]1OC(=O)[C@H](C)OC1=O", "solubility (mole fraction)", 0.00878),
]

---

conditions: in toluene, 324.25 K

# line.notation, solubility (mole fraction)
records = [
    ("C[C@@H]1OC(=O)[C@H](C)OC1=O", 0.135),
]

---

conditions: in acetone, 309.15 K

# line.notation, solubility (mole fraction)
rows = [
    ("C[C@@H]1OC(=O)[C@H](C)OC1=O", 0.36),
]

---

conditions: in methanol, 294.25 K
recorded.endpoint: solubility (mole fraction)

# line.notation, observed.value
data = [
    ("C[C@@H]1OC(=O)[C@H](C)OC1=O", 0.0373),
]

---

conditions: in ethyl acetate, 336.35 K

# line.notation, solubility (mole fraction)
measured = [
    ("C[C@@H]1OC(=O)[C@H](C)OC1=O", 0.491),
]

---

conditions: in isopropanol, 329.15 K
recorded.endpoint: solubility (mole fraction)

# line.notation, recorded.endpoint, observed.value
data = [
    ("C[C@@H]1OC(=O)[C@H](C)OC1=O", "solubility (mole fraction)", 0.127),
]

---

conditions: in isopropanol, 295.65 K
recorded.endpoint: solubility (mole fraction)

# line.notation, recorded.endpoint, observed.value
records = [
    ("C[C@@H]1OC(=O)[C@H](C)OC1=O", "solubility (mole fraction)", 0.017),
]

---

conditions: in isopropanol, 333.15 K
recorded.endpoint: solubility (mole fraction)

# line.notation, observed.value
measured = [
    ("C[C@@H]1OC(=O)[C@H](C)OC1=O", 0.177),
]

---

conditions: in acetone, 299.35 K
recorded.endpoint: solubility (mole fraction)

# line.notation, recorded.endpoint, observed.value
measured = [
    ("C[C@@H]1OC(=O)[C@H](C)OC1=O", "solubility (mole fraction)", 0.307),
]

---

conditions: in toluene, 278.55 K

# line.notation, solubility (mole fraction)
measured = [
    ("C[C@@H]1OC(=O)[C@H](C)OC1=O", 0.0128),
]

---

conditions: in ethanol, 314.65 K

# line.notation, solubility (mole fraction)
data = [
    ("C[C@@H]1OC(=O)[C@H](C)OC1=O", 0.0569),
]

---

conditions: in methanol, 298.85 K
recorded.endpoint: solubility (mole fraction)

# line.notation, recorded.endpoint, observed.value
rows = [
    ("C[C@@H]1OC(=O)[C@H](C)OC1=O", "solubility (mole fraction)", 0.0474),
]

---

conditions: in methanol, 302.25 K
recorded.endpoint: solubility (mole fraction)

# line.notation, observed.value
rows = [
    ("C[C@@H]1OC(=O)[C@H](C)OC1=O", 0.0614),
]

---

conditions: in toluene, 283.65 K
recorded.endpoint: solubility (mole fraction)

# line.notation, observed.value
data = [
    ("C[C@@H]1OC(=O)[C@H](C)OC1=O", 0.0211),
]

---

conditions: in ethyl acetate, 301.65 K

# line.notation, solubility (mole fraction)
records = [
    ("C[C@@H]1OC(=O)[C@H](C)OC1=O", 0.199),
]

---

conditions: in isopropanol, 299.95 K

# line.notation, solubility (mole fraction)
rows = [
    ("C[C@@H]1OC(=O)[C@H](C)OC1=O", 0.0208),
]

---

conditions: in toluene, 321.65 K
recorded.endpoint: solubility (mole fraction)

# line.notation, recorded.endpoint, observed.value
rows = [
    ("C[C@@H]1OC(=O)[C@H](C)OC1=O", "solubility (mole fraction)", 0.108),
]

---

conditions: in methanol, 290.25 K
recorded.endpoint: solubility (mole fraction)

# line.notation, observed.value
measured = [
    ("C[C@@H]1OC(=O)[C@H](C)OC1=O", 0.0302),
]

---

conditions: in acetone, 314.35 K
recorded.endpoint: solubility (mole fraction)

# line.notation, observed.value
rows = [
    ("C[C@@H]1OC(=O)[C@H](C)OC1=O", 0.394),
]

---

conditions: in isopropanol, 314.15 K

# line.notation, solubility (mole fraction)
data = [
    ("C[C@@H]1OC(=O)[C@H](C)OC1=O", 0.0455),
]

---

conditions: in ethanol, 319.95 K

# line.notation, solubility (mole fraction)
records = [
    ("C[C@@H]1OC(=O)[C@H](C)OC1=O", 0.081),
]

---

conditions: in methanol, 311.45 K
recorded.endpoint: solubility (mole fraction)

# line.notation, observed.value
rows = [
    ("C[C@@H]1OC(=O)[C@H](C)OC1=O", 0.116),
]

---

conditions: in ethanol, 288.65 K
recorded.endpoint: solubility (mole fraction)

# line.notation, recorded.endpoint, observed.value
measured = [
    ("C[C@@H]1OC(=O)[C@H](C)OC1=O", "solubility (mole fraction)", 0.00423),
]

---

conditions: in ethanol, 336.45 K
recorded.endpoint: solubility (mole fraction)

# line.notation, observed.value
rows = [
    ("C[C@@H]1OC(=O)[C@H](C)OC1=O", 0.337),
]

---

conditions: in methanol, 333.15 K

# line.notation, solubility (mole fraction)
measured = [
    ("C[C@@H]1OC(=O)[C@H](C)OC1=O", 0.337),
]

---

conditions: in ethyl acetate, 308.35 K
recorded.endpoint: solubility (mole fraction)

# line.notation, observed.value
data = [
    ("C[C@@H]1OC(=O)[C@H](C)OC1=O", 0.242),
]

---

conditions: in isopropanol, 323.65 K
recorded.endpoint: solubility (mole fraction)

# line.notation, recorded.endpoint, observed.value
data = [
    ("C[C@@H]1OC(=O)[C@H](C)OC1=O", "solubility (mole fraction)", 0.0854),
]

---

conditions: in toluene, 286.95 K

# line.notation, solubility (mole fraction)
measured = [
    ("C[C@@H]1OC(=O)[C@H](C)OC1=O", 0.0231),
]

---

conditions: in methanol, 315.75 K
recorded.endpoint: solubility (mole fraction)

# line.notation, observed.value
records = [
    ("C[C@@H]1OC(=O)[C@H](C)OC1=O", 0.126),
]

---

conditions: in methanol, 284.15 K

# line.notation, solubility (mole fraction)
data = [
    ("C[C@@H]1OC(=O)[C@H](C)OC1=O", 0.0231),
]

---

conditions: in ethyl acetate, 296.15 K

# line.notation, solubility (mole fraction)
measured = [
    ("C[C@@H]1OC(=O)[C@H](C)OC1=O", 0.178),
]

---

conditions: in acetone, 319.05 K
recorded.endpoint: solubility (mole fraction)

# line.notation, observed.value
measured = [
    ("C[C@@H]1OC(=O)[C@H](C)OC1=O", 0.423),
]

---

conditions: in toluene, 308.15 K

# line.notation, solubility (mole fraction)
rows = [
    ("C[C@@H]1OC(=O)[C@H](C)OC1=O", 0.0666),
]

---

conditions: in ethanol, 303.45 K

# line.notation, solubility (mole fraction)
records = [
    ("C[C@@H]1OC(=O)[C@H](C)OC1=O", 0.031),
]

---

conditions: in toluene, 303.15 K
recorded.endpoint: solubility (mole fraction)

# line.notation, observed.value
records = [
    ("C[C@@H]1OC(=O)[C@H](C)OC1=O", 0.0436),
]

---

conditions: in toluene, 315.95 K
recorded.endpoint: solubility (mole fraction)

# line.notation, observed.value
rows = [
    ("C[C@@H]1OC(=O)[C@H](C)OC1=O", 0.0854),
]

---

conditions: in isopropanol, 318.65 K

# line.notation, solubility (mole fraction)
data = [
    ("C[C@@H]1OC(=O)[C@H](C)OC1=O", 0.0605),
]

---

conditions: in ethyl acetate, 313.15 K

# line.notation, solubility (mole fraction)
data = [
    ("C[C@@H]1OC(=O)[C@H](C)OC1=O", 0.272),
]

---

conditions: in methanol, 322.25 K
recorded.endpoint: solubility (mole fraction)

# line.notation, observed.value
data = [
    ("C[C@@H]1OC(=O)[C@H](C)OC1=O", 0.204),
]

---

conditions: in ethanol, 310.15 K

# line.notation, solubility (mole fraction)
records = [
    ("C[C@@H]1OC(=O)[C@H](C)OC1=O", 0.044),
]

---

conditions: in ethyl acetate, 331.35 K

# line.notation, solubility (mole fraction)
records = [
    ("C[C@@H]1OC(=O)[C@H](C)OC1=O", 0.436),
]

---

conditions: in ethyl acetate, 287.65 K

# line.notation, solubility (mole fraction)
rows = [
    ("C[C@@H]1OC(=O)[C@H](C)OC1=O", 0.147),
]
